Value source: patent US20240270821A1

Target: human glucagon receptor (human) (UniProt P47871)
Sequence (P47871 26-477): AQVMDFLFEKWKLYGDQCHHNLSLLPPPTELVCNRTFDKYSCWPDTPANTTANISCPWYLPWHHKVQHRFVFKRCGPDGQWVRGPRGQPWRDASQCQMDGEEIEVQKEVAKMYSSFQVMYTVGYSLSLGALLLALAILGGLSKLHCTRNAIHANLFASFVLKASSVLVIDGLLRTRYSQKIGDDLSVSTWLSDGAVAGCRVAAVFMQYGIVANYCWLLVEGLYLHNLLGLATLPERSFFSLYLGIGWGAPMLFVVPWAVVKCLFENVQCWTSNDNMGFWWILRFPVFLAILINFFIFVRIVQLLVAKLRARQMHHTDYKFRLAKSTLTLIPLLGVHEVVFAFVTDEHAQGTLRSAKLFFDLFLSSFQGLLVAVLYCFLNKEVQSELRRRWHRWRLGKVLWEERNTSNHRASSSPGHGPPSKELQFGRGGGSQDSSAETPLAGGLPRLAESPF
Test: cell-based or functional assay
observable: Relative cAMP EC50

Request: Note down Relative cAMP EC50 recorded for YXQGTFTSDXSQXLDKKAQXAFIEYLIEXGPSSGAPPPSGSGE (not fully specified; possible C-terminal amide; synthetic construct; SITE 2: note = 2-Aminoisobutyric Acid; SITE 10: note = 3-(4-Pyridyl)-L-alanine; SITE 13: note = alpha-methyl-leucine; SITE 17: note = Lysine is chemically modified through conjugation of the epsilon-amino group of the Lysine side chain with (gamma-Glu)2-CO-(CH2)16-CO2H; SITE 20:) [Example 891]
Result: 3.14 nM

Request: Indicate its recorded Relative cAMP EC50; the binder in question is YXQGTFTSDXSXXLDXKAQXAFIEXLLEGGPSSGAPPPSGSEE (non-natural residues; lysine acylated with C18 diacid; C-terminal amide; synthetic construct; SITE 2: note = 2-Aminoisobutyric Acid; SITE 10: note = 3-(4-Pyridyl)-L-alanine; SITE 12: note = L-ornithine; SITE 13: note = alpha-methyl-leucine; SITE 16: note = L-ornithine; SITE 17: note = Lysine is chemically modified through conjugation of the epsilon-amino group of the Lys) [Example 1067]
Result: 12.6 nM

Request: Supply reported Relative cAMP EC50 belonging to this binder: YXQGTFTSDXSQXLDXKAQXAFIEYLIAXGPSSGEPPPSGSEE (non-natural residues, γGlu-C18 diacid lysine acylation, C-terminal amide; synthetic construct; SITE 2: note = 2-Aminoisobutyric Acid; SITE 10: note = 3-(4-Pyridyl)-L-alanine; SITE 13: note = alpha-methyl-leucine; SITE 16: note = L-ornithine; SITE 17: note = Lysine is chemically modified through conjugation of the epsilon-amino group of the Lysine side chain with D-Glutami) [Example 1101]
Result: 4.72 nM
